Target desc: Histone acetyltransferase KAT2B (Homo sapiens)
Sequence (Q92831 whole entry): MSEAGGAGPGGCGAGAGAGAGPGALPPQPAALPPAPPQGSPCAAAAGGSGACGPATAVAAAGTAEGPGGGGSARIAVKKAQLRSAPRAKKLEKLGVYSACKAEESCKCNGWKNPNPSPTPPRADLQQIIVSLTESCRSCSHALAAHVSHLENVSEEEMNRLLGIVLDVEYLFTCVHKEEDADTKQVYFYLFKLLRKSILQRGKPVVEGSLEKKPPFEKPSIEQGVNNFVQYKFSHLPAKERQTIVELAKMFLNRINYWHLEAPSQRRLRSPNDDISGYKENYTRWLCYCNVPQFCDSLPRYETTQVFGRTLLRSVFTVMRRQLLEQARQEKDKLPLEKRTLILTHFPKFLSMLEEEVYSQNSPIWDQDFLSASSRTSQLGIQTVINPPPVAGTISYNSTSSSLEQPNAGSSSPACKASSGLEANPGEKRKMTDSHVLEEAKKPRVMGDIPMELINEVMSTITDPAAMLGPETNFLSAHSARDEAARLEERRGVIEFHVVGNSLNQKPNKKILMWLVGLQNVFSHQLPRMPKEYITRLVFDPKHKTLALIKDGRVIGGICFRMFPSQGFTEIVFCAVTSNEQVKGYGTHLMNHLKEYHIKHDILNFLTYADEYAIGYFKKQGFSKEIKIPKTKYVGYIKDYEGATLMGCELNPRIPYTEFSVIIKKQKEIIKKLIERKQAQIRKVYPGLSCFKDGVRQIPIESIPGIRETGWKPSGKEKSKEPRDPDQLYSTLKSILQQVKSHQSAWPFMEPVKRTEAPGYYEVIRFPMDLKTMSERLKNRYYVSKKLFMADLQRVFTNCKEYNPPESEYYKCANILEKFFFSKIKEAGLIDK
pIC50: −log10 of the molar value.
Measurement name: pIC50

# value lookup — system Histone acetyltransferase KAT2B (Homo sapiens), readout pIC50, item c1cc(-c2ccc(-c3ncc(OCC4CCNCC4)nc3-c3ccc(-c4ccoc4)cc3)cc2)co1
< 4.00

----------
Target desc: CREB-binding protein (Homo sapiens)
Sequence (Q92793 whole entry): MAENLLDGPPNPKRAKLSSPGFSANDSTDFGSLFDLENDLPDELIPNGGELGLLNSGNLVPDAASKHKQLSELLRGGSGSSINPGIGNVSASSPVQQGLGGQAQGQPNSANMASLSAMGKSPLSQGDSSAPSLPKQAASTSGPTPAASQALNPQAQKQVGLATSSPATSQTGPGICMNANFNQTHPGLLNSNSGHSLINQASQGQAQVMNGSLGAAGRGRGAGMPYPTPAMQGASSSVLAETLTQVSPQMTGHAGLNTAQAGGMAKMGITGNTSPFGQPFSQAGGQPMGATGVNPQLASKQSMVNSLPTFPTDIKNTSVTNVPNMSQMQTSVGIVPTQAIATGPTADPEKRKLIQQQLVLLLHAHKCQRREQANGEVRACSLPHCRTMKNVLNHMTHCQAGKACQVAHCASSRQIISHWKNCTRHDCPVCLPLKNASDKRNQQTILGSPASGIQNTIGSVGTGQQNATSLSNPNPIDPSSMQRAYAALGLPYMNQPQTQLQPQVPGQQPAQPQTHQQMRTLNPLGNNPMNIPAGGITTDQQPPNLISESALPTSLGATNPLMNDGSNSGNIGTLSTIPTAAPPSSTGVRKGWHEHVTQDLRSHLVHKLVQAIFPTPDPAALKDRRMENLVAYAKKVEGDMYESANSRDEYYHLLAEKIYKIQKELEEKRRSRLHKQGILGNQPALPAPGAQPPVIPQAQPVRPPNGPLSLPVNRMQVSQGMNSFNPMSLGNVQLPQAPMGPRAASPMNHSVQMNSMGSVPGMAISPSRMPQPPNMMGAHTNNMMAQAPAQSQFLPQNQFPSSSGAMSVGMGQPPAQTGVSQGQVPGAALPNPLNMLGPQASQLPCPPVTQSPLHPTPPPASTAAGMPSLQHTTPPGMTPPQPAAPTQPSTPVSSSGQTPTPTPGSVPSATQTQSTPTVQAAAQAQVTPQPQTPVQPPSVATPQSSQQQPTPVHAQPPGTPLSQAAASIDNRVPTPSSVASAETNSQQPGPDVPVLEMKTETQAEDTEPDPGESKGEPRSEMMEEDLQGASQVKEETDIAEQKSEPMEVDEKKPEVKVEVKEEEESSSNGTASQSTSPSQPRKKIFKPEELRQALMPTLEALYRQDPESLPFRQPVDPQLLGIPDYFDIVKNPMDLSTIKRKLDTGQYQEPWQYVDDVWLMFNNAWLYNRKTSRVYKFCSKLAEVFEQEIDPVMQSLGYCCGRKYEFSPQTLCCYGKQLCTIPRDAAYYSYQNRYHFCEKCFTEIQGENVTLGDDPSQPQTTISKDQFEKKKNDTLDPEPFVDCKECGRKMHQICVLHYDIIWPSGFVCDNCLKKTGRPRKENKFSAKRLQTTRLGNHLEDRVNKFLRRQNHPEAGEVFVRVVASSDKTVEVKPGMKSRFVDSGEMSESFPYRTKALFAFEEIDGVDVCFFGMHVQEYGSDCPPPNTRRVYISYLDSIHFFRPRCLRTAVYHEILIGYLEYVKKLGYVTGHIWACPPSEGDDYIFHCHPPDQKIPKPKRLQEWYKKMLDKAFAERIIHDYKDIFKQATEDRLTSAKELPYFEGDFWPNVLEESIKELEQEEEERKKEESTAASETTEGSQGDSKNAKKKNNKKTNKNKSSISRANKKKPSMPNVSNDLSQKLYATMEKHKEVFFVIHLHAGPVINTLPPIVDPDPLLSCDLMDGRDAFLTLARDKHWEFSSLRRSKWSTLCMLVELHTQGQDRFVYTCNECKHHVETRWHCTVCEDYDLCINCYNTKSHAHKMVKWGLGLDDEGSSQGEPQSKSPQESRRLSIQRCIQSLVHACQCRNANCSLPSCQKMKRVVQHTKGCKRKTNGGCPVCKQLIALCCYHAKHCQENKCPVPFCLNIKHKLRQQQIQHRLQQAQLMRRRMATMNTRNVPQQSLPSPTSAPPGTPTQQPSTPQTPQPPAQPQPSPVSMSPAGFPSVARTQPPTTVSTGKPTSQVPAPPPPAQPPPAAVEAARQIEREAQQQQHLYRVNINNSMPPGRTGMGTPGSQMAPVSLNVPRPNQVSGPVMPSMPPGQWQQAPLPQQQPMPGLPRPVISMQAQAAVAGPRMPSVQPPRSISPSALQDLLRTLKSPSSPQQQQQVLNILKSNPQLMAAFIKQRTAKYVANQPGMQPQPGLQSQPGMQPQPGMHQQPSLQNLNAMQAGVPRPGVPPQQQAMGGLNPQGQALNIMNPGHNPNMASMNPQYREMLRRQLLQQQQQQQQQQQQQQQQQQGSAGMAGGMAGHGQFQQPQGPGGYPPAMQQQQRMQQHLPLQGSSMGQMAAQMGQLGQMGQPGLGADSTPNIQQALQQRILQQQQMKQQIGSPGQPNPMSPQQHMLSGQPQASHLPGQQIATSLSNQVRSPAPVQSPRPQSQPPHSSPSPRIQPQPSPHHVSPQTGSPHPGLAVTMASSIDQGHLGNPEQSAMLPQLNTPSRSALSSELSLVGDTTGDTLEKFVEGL
Measurement name: IC50 (nM)
Enter your answer as a number in nM; do not include the unit.

IC50 for c1cc(-c2ccc(-c3ncc(OCC4CCNCC4)nc3-c3ccc(-c4ccoc4)cc3)cc2)co1 ?
2200

----------
Test system: LNCaP
Method summary: Antiproliferative activity against human LNCaP cells assessed as reduction in cell growth incubated for 3 to 5 days by CellTiter-Glo luminescent cell viability assay
Format: functional, cell-based
Measurement name: pEC50
# pEC50: negative log10 of molar concentration; output just the value

pEC50 for CNC(=O)Nc1ccc2c(c1)CC[C@@]21OC(=O)N(CC(=O)N(Cc2ccc(F)cc2)[C@@H](C)C(F)(F)F)C1=O (single isomer, unassigned) ?
6.59
